Test: Selectivity ratio (alpha2/PNMT)
Outcome Measure: Selectivity

Sample records with Selectivity:
NS(=O)(=O)c1ccc2c(c1)CNC(CO)C2 (stereo not given) :: 4100
O=[N+]([O-])c1ccc2c(c1)CNC(CF)C2 (stereo not given) :: 140

According to the records, this compound O=[N+]([O-])c1ccc2c(c1)CNCC(O)C2 (stereo not given) displays Selectivity of 130

Short answer for N#Cc1ccc2c(c1)CNC(CF)C2 (stereo not given) : Selectivity was 420

// FC1CNCc2cc(Br)ccc2C1 (stereo not given) : Selectivity value = 130

###

Assay: Selectivity ratio (alpha2/PNMT)
// reported Selectivity for each item listed
Lab note: jot down the number only; don't add units.

FCC1Cc2ccc(Br)cc2CN1 (stereo not drawn) :: 10
COc1ccc2c3c([nH]c2c1)C=NCC3 :: 4.4
Clc1ccc2c(c1Cl)CNCC2 :: 0.095

The reported Selectivity of the compound NS(=O)(=O)c1ccc2c(c1)CNC(CF)C2 (stereo not drawn) was 1000

Looking up O=[N+]([O-])c1ccc2c(c1)CNCC2CF (stereo not drawn) , I found its Selectivity recorded as 17

Note to self: Selectivity recorded for O=[N+]([O-])c1ccc2c(c1)CNCC(F)C2 (stereo not drawn) was 940

Note to self: Selectivity recorded for FC1CNCc2ccccc2C1 (stereo not drawn) was 47

Form: compound = N#Cc1ccc2c(c1)CNCC(F)C2 (stereo not drawn) ; Selectivity = 77

Data origin: ChEMBL document CHEMBL1134455
